target desc: Trace amine-associated receptor 1 (Homo sapiens)
test description: blockers of beta-PEA-driven TAAR1 calcium signal – Fluo-8 calcium fluorescence, CHO RD-HGA16 cells, primary screen (AID 624466);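 further: 0% = DMSO plus EC80 beta-PEA response and 100% = DMSO alone without agonist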
condition: CHO RD-HGA16 TAAR1, Fluo-8 calcium fluorescence, antagonist; at 3 µM
The campaign covered roughly 360,000 compounds. About 5,400 (1.5%) were called active.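 How the source made its calls: active means inhibition above a per-plate cutoff, the mean inhibition of test compounds on that plate plus 3 SD (cut at about 49% in these data); inactive means the rest.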 Many of the other results were omitted from the sample, so actives are more common in it than they were.
Outcomes: 1 (yes) (active), 0 (no) (inactive)

* O=C(CCc1ccccc1)NNC(=O)COc1ccc(Cl)cc1 | 0 (no)
* Cc1ccc(Cn2cc(CN3CC(N4CCN(C)CC4)CS3(=O)=O)nn2)cc1 (stereo not given) | 0 (no)
* COc1ccc(C(=O)NNC(=S)NC(=O)c2ccccc2)cc1 | 1 (yes)
* COc1ccc(NC(=O)C2=CC(c3ccc(OC)c(OC)c3)=NS(=O)(=O)N2C)cc1 | 1 (yes)
* CN(C)S(=O)(=O)c1cccc(NC(=O)COC(=O)c2cc(=O)[nH]c(=O)[nH]2)c1 | 0 (no)
* Cc1cccc(C(=O)Nc2ccc(C(=O)/C=C/c3cccs3)cc2)c1 | 1 (yes)
* COc1cc(NC(=O)C2=CC(c3ccco3)=NS(=O)(=O)N2C)cc(OC)c1OC | 0 (no)
* O=C(NNC(=S)NCc1ccccc1)c1ccc(OC(F)F)cc1 | 0 (no)
* CN(C)S(=O)(=O)c1cccc(NC(=O)COC(=O)C2(c3ccccc3F)CCCC2)c1 | 1 (yes)
* COc1cc(NC(=O)C2=CC(c3ccc(C)cc3)=NS(=O)(=O)N2C)cc(OC)c1OC | 0 (no)
